Test: XRPD before and after DVS (form change)
Format: physicochemical
Cond: state of sample post DVS
Where a name gives a salt, the structure may show the parent alone.
Property: form change after DVS

{"Molecule": "CNCc1cnn(-c2cc(Nc3nc(C)cc(NC)n3)ccc2OC)c1 [Compound 6 freebase Type A]", "Property": "form change after DVS", "Endpoint Value": "No form change"}
{"Molecule": "CNc1cc(C)nc(Nc2ccc(OC)c(OC[C@H](O)CN3CCCC3)c2)n1 [Compound 4R Succinate Salt Type A]", "Property": "form change after DVS", "Endpoint Value": "No form change"}
{"Molecule": "CNc1cc(C)nc(Nc2ccc(OC)c(CNCCN3CCCC3)c2)n1 [Compound 3 Freebase Type A]", "Property": "form change after DVS", "Endpoint Value": "No form change"}

###

Test: DVS water uptake / hygroscopicity
Assay type: physicochemical
Cond: conclusion from DVS where run
Counter-ions that a name gives are not always drawn.
Property: hygroscopicity (in words)

{"Molecule": "CNc1cc(C)nc(Nc2ccc(OC)c(OC[C@H](O)CN3CCCC3)c2)n1 [Compound 4R Succinate Salt Type A]", "Property": "hygroscopicity (in words)", "Endpoint Value": "hygroscopic"}
{"Molecule": "CNc1cc(C)nc(Nc2ccc(OC)c(OC[C@H](O)CN3CCC3)c2)n1 [Compound 5R Fumarate Salt Type A]", "Property": "hygroscopicity (in words)", "Endpoint Value": "hygroscopic"}
{"Molecule": "CNc1cc(C)nc(Nc2cnc(OC)c(OC[C@@H]3CCN(C)C3)c2)n1 [Compound 1R Hydrochloride Salt Type A]", "Property": "hygroscopicity (in words)", "Endpoint Value": "hygroscopic"}

###

Test: XRPD before and after DVS (form change)
Assay type: physicochemical
Cond: state of sample post DVS
Where a name gives a salt, the structure may show the parent alone.

{"Compound": "CNc1cc(C)nc(Nc2ccc(OC)c(OC[C@H](O)CN3CCCC3)c2)n1 [Compound 4R Hydrochloride Salt Type B]", "form change after DVS": "No form change"}
{"Compound": "CNc1cc(C2CCOCC2)c2cc(OC)c(OCCCN3CCCC3)cc2n1 [Compound 2 Freebase Type A]", "form change after DVS": "No form change"}
{"Compound": "CNc1cc(C)nc(Nc2ccc(OC)c(OC[C@H](O)CN3CCCC3)c2)n1 [Compound 4R Freebase Type C]", "form change after DVS": "No form change"}

###

Test: DVS water uptake / hygroscopicity
Assay type: physicochemical
Cond: at 25° C./80% RH
Structures can show the parent of a compound that is named as a salt.
Property: water uptake (DVS) (%)

{"Molecule": "CNc1cc(C)nc(Nc2ccc(OC)c(CNCCN3CCCC3)c2)n1 [Compound 3 Sulfate Sate Type A]", "Units": "%", "water uptake (DVS)": 20.5}

A = CNc1cc(C)nc(Nc2ccc(OC)c(CNCCN3CCCC3)c2)n1 [Compound 3 Hydrochloride Salt Type B]
B = CNc1cc(C)nc(Nc2ccc(OC)c(OC[C@H](O)CN3CCC3)c2)n1 [Compound 5R Fumarate Salt Type A]
input: water uptake (DVS) comparison. Which is larger, A or B ? Identify your selection by its label.
output: A
